Each recorded value in this set is attributed to the RepoRT retention time repository (doi:10.1021/acs.analchem.2c02893).

Quick reference for LC retention time among some compounds
assay: RP, Thermo Scientific Acclaim RSLC 120 C18, 100 × 2.1 mm, 2.2 µm, 30 °C, 0.2 mL/min, estimated dead time 1.1 min; A: 90% water + 10% methanol + 0.01% formic acid + 5 mM ammonium formate, pH 3.61; B: methanol + 0.01% formic acid + 5 mM ammonium formate, pH 3.61; gradient (min/%B) 0/1 1/1 2/39 13/99.9 15/99.9 15.1/1 20.1/1; details: stereoisomer not certain
measure: LC retention time (min)

INSERT INTO results (compound, measure, unittag, resultvalue) VALUES
  ('O=C(O)Cc1ccccc1Nc1c(Cl)cccc1Cl', 'LC retention time', 'min', 10.2),
  ('CC1(C)C(C(=O)c2nn(CCCCCF)c3ccccc23)C1(C)C', 'LC retention time', 'min', 12.7),
  ('COC(=O)COc1cc(Cl)c(Cl)cc1Cl', 'LC retention time', 'min', 10.8),
  ('COc1cc(N)c(Cl)cc1C(=O)NC1CCN(CCCOc2ccc(F)cc2)CC1OC (stereo not drawn) [Cisapride]', 'LC retention time', 'min', 6.73),
  ('NC(=O)N1c2ccccc2C=Cc2cc(O)ccc21 [2-Hydroxycarbamazepine]', 'LC retention time', 'min', 6.03),
  ('C#CC(C)(C)NC(=O)c1cc(Cl)cc(Cl)c1 [Propyzamide (Pronamide)]', 'LC retention time', 'min', 9.69),
  ('CN(CCOc1ccc(CC2SC(=O)NC2=O)cc1)c1ccccn1 (stereo not drawn)', 'LC retention time', 'min', 6.98),
  ('CC1COC(Cn2cncn2)(c2ccc(Oc3ccc(Cl)cc3)cc2Cl)O1 (stereo not drawn)', 'LC retention time', 'min', 11.6),
  ('NC(=O)N1c2ccccc2C2OC2c2ccccc21 (stereo not drawn) [Carbamazepine-10.11-epoxide]', 'LC retention time', 'min', 6.04),
  ('CCOC1Oc2ccc(OS(C)(=O)=O)cc2C1(C)C (stereo not drawn) [Ethofumesate]', 'LC retention time', 'min', 9.14),
  ('CCOC(=O)C(Cl)Cc1cc(-n2nc(C)n(C(F)F)c2=O)c(F)cc1Cl (stereo not drawn)', 'LC retention time', 'min', 10.7),
  ('Cc1nnc2n1-c1ccc(Cl)cc1C(c1ccccc1)=NC2O (stereo not drawn) [Alprazolam-Hydroxy]', 'LC retention time', 'min', 7.81),
  ('CCCCCn1c(C)c(C(=O)c2cccc3ccccc23)c2ccccc21', 'LC retention time', 'min', 12.6),
  ('CCOP(=O)(NC(C)C)Oc1ccc(S(C)(=O)=O)c(C)c1 (stereo not drawn)', 'LC retention time', 'min', 7.21),
  ('COC(=O)COc1nc(Cl)c(Cl)cc1Cl', 'LC retention time', 'min', 10.4),
  ('CNc1c(C)n(C)n(-c2ccccc2)c1=O', 'LC retention time', 'min', 4.74),
  ('CC(N)Cc1c[nH]c2ccccc12 (stereo not drawn)', 'LC retention time', 'min', 4.44),
  ('CCCCCCCCCCCCCCCCCC[N+](C)(C)CCCCCCCCCCCCCCCCCC', 'LC retention time', 'min', 15);
